These data points were gathered from ChEMBL document CHEMBL1121718.

System: Rattus norvegicus
Test: Antidepressant activity was measured by the potentiation of head twitching induced by 5-hydroxy-tryptophan in pargyline-pretreated rats after ip administration
Format: functional
Could you please mark Y for values of ED50 below 0.7 mg/kg and N for values at or above it?

>>> df
                                    molecule  class
 0  Cc1ccccc1C1SC2(CCN(C)CC2)c2ccccc21 (stereo not drawn)      N
 1  Clc1ccc(C2SC3(CCNCC3)c3ccccc32)c(Cl)c1 (stereo not drawn)      N
 2  Fc1ccc(C2SC3(CCNCC3)c3ccccc32)cc1 (stereo not drawn)      Y
 3  CN1CCC2(CC1)SC(c1cccc(F)c1)c1ccccc12 (stereo not drawn)      N
 4  Br.CN1CCC2(CC1)SC(c1ccc(Cl)cc1Cl)c1ccccc12 (stereo not drawn)      N
 5  Br.CN1CCC2(CC1)SC(c1ccccc1F)c1ccccc12 (stereo not drawn)      N
 6  CN1CCC2(CC1)SC(c1ccccc1Cl)c1ccccc12 (stereo not drawn)      N
 7  Cc1ccc(C2SC3(CCN(C)CC3)c3ccccc32)cc1 (stereo not drawn)      N
 8  c1ccc(C2SC3(CCNCC3)c3ccccc32)cc1 (stereo not drawn)      N
 9  CN1CCC2(CC1)SC(c1ccccc1)c1ccccc12 (stereo not drawn)      N
10  CN(C)CCC=C1c2ccccc2CCc2ccccc21 [AMITRIPTYLINE]      N
11  CN1CCC2(CC1)SC(c1cccc(C(F)(F)F)c1)c1ccccc12 (stereo not drawn)      Y
12  Clc1ccccc1C1SC2(CCNCC2)c2ccccc21 (stereo not drawn)      N
13  Clc1ccc(C2SC3(CCNCC3)c3ccccc32)cc1 (stereo not drawn)      Y
14  CNCCCN1c2ccccc2CCc2ccccc21 [DESIPRAMINE]      N
15  CN(C)CCCN1c2ccccc2CCc2ccc(Cl)cc21 [CLOMIPRAMINE]      N
16  Clc1ccc(C2SC3(CCNCC3)c3ccccc32)cc1Cl (stereo not drawn)      Y
17  CN1CCC2(CC1)SC(c1ccccc1)c1ccc(F)cc12 (stereo not drawn)      N
18  Br.Cc1cccc(C2SC3(CCN(C)CC3)c3ccccc32)c1 (stereo not drawn)      N
19  CNCCC(Oc1ccc(C(F)(F)F)cc1)c1ccccc1 (stereo not drawn) [FLUOXETINE]      Y
20  Fc1ccccc1C1SC2(CCNCC2)c2ccccc21 (stereo not drawn)      N
21  CN1CCC2(CC1)SC(c1ccc(Cl)c(Cl)c1)c1ccccc12 (stereo not drawn)      Y
22  CN1CCC2(CC1)SC(c1ccc(Cl)cc1)c1ccccc12 (stereo not drawn)      Y
23  Cc1ccccc1C1SC2(CCNCC2)c2ccccc21 (stereo not drawn)      N
24  Fc1cccc(C2SC3(CCNCC3)c3ccccc32)c1 (stereo not drawn)      Y
25  Cc1ccc(C2SC3(CCNCC3)c3ccccc32)cc1 (stereo not drawn)      Y
26  CN1CCC2(CC1)SC(c1ccc(F)cc1)c1ccccc12 (stereo not drawn)      N

----------
Tested on: Mus musculus
Experiment: Antidepressant activity was measured by the inhibition of tetrabenazine (TBZ) ptosis in mice after i.p. administration.
Type: functional
Conditions: ip
Recorded Metric: ED50

>>> df
                                    compound        target  recorded_metric      result
 0  Clc1cccc(C2SC3(CCNCC3)c3ccccc32)c1 (stereo not drawn)  Mus musculus             ED50  0.52 mg/kg
 1  Br.CN1CCC2(CC1)SC(c1ccc(Cl)cc1Cl)c1ccccc12 (stereo not drawn)  Mus musculus             ED50   1.6 mg/kg
 2  CN1CCC2(CC1)SC(c1ccc(Cl)c(Cl)c1)c1ccccc12 (stereo not drawn)  Mus musculus             ED50   3.5 mg/kg
 3  Br.CN1CCC2(CC1)SC(c1cccc(Cl)c1)c1ccccc12 (stereo not drawn)  Mus musculus             ED50   0.9 mg/kg
 4  CN1CCC2(CC1)SC(c1ccccc1)c1ccc(F)cc12 (stereo not drawn)  Mus musculus             ED50   1.8 mg/kg
 5  Fc1ccccc1C1SC2(CCNCC2)c2ccccc21 (stereo not drawn)  Mus musculus             ED50  0.78 mg/kg
 6  CN1CCC2(CC1)SC(c1cccc(F)c1)c1ccccc12 (stereo not drawn)  Mus musculus             ED50  0.83 mg/kg
 7            CN(C)CCC=C1c2ccccc2CCc2ccccc21  Mus musculus             ED50   1.5 mg/kg
 8  Clc1ccc(C2SC3(CCNCC3)c3ccccc32)c(Cl)c1 (stereo not drawn)  Mus musculus             ED50   2.4 mg/kg
 9  Fc1ccc(C2SC3(CCNCC3)c3ccccc32)cc1 (stereo not drawn)  Mus musculus             ED50  0.67 mg/kg
10  FC(F)(F)c1cccc(C2SC3(CCNCC3)c3ccccc32)c1 (stereo not drawn)  Mus musculus             ED50   1.2 mg/kg
11  Cc1ccccc1C1SC2(CCN(C)CC2)c2ccccc21 (stereo not drawn)  Mus musculus             ED50  0.77 mg/kg
12  c1ccc(C2SC3(CCNCC3)c3ccccc32)cc1 (stereo not drawn)  Mus musculus             ED50   1.1 mg/kg
13  Cc1ccc(C2SC3(CCN(C)CC3)c3ccccc32)cc1 (stereo not drawn)  Mus musculus             ED50    ~3 mg/kg
14  Br.Cc1cccc(C2SC3(CCN(C)CC3)c3ccccc32)c1 (stereo not drawn)  Mus musculus             ED50   ~20 mg/kg
15  Cc1ccc(C2SC3(CCNCC3)c3ccccc32)cc1 (stereo not drawn)  Mus musculus             ED50  0.69 mg/kg
16  Cc1cccc(C2SC3(CCNCC3)c3ccccc32)c1 (stereo not drawn)  Mus musculus             ED50   1.9 mg/kg
17  CN1CCC2(CC1)SC(c1cccc(C(F)(F)F)c1)c1ccccc12 (stereo not drawn)  Mus musculus             ED50  0.73 mg/kg
18  Clc1ccc(C2SC3(CCNCC3)c3ccccc32)cc1 (stereo not drawn)  Mus musculus             ED50   2.1 mg/kg
19  CN1CCC2(CC1)SC(c1ccc(Cl)cc1)c1ccccc12 (stereo not drawn)  Mus musculus             ED50   1.3 mg/kg
20  Br.CN1CCC2(CC1)SC(c1ccccc1F)c1ccccc12 (stereo not drawn)  Mus musculus             ED50     3 mg/kg
21  CN1CCC2(CC1)SC(c1ccc(F)cc1)c1ccccc12 (stereo not drawn)  Mus musculus             ED50   1.4 mg/kg
22  CN1CCC2(CC1)SC(c1ccccc1Cl)c1ccccc12 (stereo not drawn)  Mus musculus             ED50   0.6 mg/kg
